Attribution: the DeepSol protein solubility set

# ASSAY_PROCEDURE: soluble on expression in E. coli; label from the status in PepcDB or PDB records
PARAMETER: soluble on expression in E. coli

item_sequence=SDDKAFTKELDQWVEQLNECKQLNENQVRTLCEKAKEILTKESNVQEVRCPVTVCGDVHGQFHDLMELFRIGGKSPDTNYLFMGDYVDRGYYSVETVTLLVALKVRYPERITILRGNHESRQITQVYGFYDECLRKYGNANVWKYFTDLFDYLPLTALVDGQIFCLHGGLSPSIDTLDHISPRGAGYTFGQDISETFNHANGLTLVSRAHQLVMEGYNWCHDRNVVTIFSAPNYCYRCGNQAAIMELDDTLKYSFLQFDPAPRRGEPHVTRRTPDYFL reported_value=soluble
item_sequence=MSLRNDPTGVTHAIRLDNDIFKLNVYIKNIDTSKSNLRYTEGYLQSLTNILTRAKEIAIQGASGTYESDDKKMISKEVNALLEDVVAIANAKGPDGYSIFSGTKIDSEAFKVTRENKISKTSKDGAGPQIIKVEYNGNQAEKKTEVYNDIHMSNNYPGNVIFFLQNQNIISSINTNGFAVKENTKIYIDNIEIGLTAGDTALDIVAKINESSAPVEASIDPVLNSLSIKTTTPHQIWITEEKESNVLQTLGILTKNNDTKLPPYNLSSSTEVRSRSIFDALIELRDTLYNNKEELVGSRSLAEIDESLKRLLISVADLGAKENRLDRSYERISKEAADMKEDMIQYTDLDVTKAITNLNMASLAYQVSIGISAKIMQTTLLDFIKEGHHHHHH reported_value=soluble
